Assay: Compound was tested for plasma half life when administered in dog perorally (1 mg/kg) and intravenously (0.2 mg/kg)
Format: ADME, organism-based, Canis lupus familiaris
Measure Name: half-life (h)

| Molecule | Measure Name | Test Result |
| --- | --- | --- |
| O=C(O)C[C@H](NC(=O)CCCCc1ccc2c(n1)NCCC2)c1ccc2c(c1)OCC2 | half-life | 2.5 |
| O=C(O)C[C@H](NC(=O)CCCCc1ccc2c(n1)NCCC2)c1ccc2c(c1)OCO2 | half-life | 2.4 |
| O=C(O)C[C@H](NC(=O)CCCCc1ccc2c(n1)NCCC2)c1cncnc1 | half-life | 2.4 |
| O=C(O)C[C@H](NC(=O)CCCCc1ccc2c(n1)NCCC2)c1cnc2ccccc2c1 | half-life | 2.4 |

FYI, the data here is from ChEMBL document CHEMBL1135308.
